// values below are reported protein stability index
B1: SMOC2 (parent)
chain: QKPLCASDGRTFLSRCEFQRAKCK

Variants of: B1
Assay procedure: protein stability index of a GFP-peptide fusion (GPS, HEK-293T) (PSI 1-6); higher = more stable;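 also: lentivirally expressed fusions sorted by FACS into six bins by GFP to DsRed ratio, PSI derived from sequencing read proportions per bin multiplied by bin number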
Measurement conditions: c terminus: a fixed tail appended
Give the value as a plain number.

1. R20V: 2.9
2. E17F: 2.32
3. F12S: 4.83
4. C23M: 3.15
5. Q19E: 3.48
6. A6V: 3.69
7. Q19I: 3
8. G9S: 3.42
9. L4D: 3.83
10. C5Q: 2.88

Next variant, protein stability index to be filled in.
# input variant: L4R ; wanted: its protein stability index 3.25

Origin of values: the supplement of paper PMC10567573
